Target: T1, CD123-Fc (Sino Biological) (human, UniProt P26951 19-305)
T1 construct: Bought reagent; not shown: Fc of the bought fusion (detected with anti-human Fc, captured on AHC sensor)
T1 sequence: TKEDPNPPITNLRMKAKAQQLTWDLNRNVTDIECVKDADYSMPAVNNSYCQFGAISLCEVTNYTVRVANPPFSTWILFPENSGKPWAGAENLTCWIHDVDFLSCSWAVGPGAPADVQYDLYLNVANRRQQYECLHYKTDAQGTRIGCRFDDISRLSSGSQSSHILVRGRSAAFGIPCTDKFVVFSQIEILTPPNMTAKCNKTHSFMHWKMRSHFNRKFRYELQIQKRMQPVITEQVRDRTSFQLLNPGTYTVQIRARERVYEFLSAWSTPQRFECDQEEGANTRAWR
Test: BLI (Octet), CD123-Fc captured on AHC sensor, Adapter 500-0.69 nM in solution, global 1:1 fit, 25 C
MEASURED QUANTITY: kon

Req: Data request, read-out kon, for Adapter protein comprising the 1F9I D domain and a P26(Q26-V229) AFP polypeptide (designed binder, also called 6T1D(L21Q, I59L); not shown: His tag (purified on Ni-Sepharose)) MGSWDEFGRRLYAIEWQLYAQGGTEAELAAFEKEIAAFESELQAYKGKGNPEVEKLRELAAVIRENLQAYRHNQESQALAKRSCGLFQKLGEYYLQNAFLVAYTKKAPQLTSSELMAITRKMAATAATCCQLSEDKLLACGEGAADIIIGHLCIRHEMTPVNPGVGQCCTSSYANRRPCFSSLVVDETYVPPAFSDDKFIFHKDLCQAQGVALQTMKQEFLINLVKQKPQITEEQLEAVIADFSGLLEKCCQGQEQEVCFAEEGQKLISKTRAALGV
Resp: 85200 M⁻¹ s⁻¹
